Source listed as paper PMC9482650.

- ASSAYED SYSTEM: TJP1_2, Q07157
- Sequence (Q07157 181-274): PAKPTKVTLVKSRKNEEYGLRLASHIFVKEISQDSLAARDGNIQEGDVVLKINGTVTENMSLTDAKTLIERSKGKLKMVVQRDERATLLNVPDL
- PROTOCOL NOTES: holdup assay
- Design: key: below the threshold = too weak to quantify, mostly under pKd 3.1 to 4
- EXPERIMENTAL CONDITIONS: plain residues with an end cap or a label only (N-terminal biotin on a linker: ado-ado)
EXPERIMENTAL ENDPOINT: pKd

- BINDER: "FVFESRKEIL [TBPL1, P62380]"
  VALUE OBSERVED: "below the threshold"
- BINDER: "NTALVESEDL [PALLS, Q8WX93;Q8WX93-1]"
  VALUE OBSERVED: "below the threshold"
- BINDER: "MQILSKPEFI [NPSR1, Q6W5P4]"
  VALUE OBSERVED: "below the threshold"
- BINDER: "ATKDKKITTV [EXOC4, Q96A65]"
  VALUE OBSERVED: 3.73
